- testMethodNotes: Viability qHTS for spleen associated tyrosine kinase inhibitor (SYKi) naive MV4-11 cells (AID 1963823); note: nearly all actives have a fitted effect of over 40% in size
- assaySetup: MV4-11 AML viability, CellTiter-Glo luminescence, 72 h; series mostly up to 45 µM
Records with an inconclusive call do not appear. Calls of active or inactive are those of the source. Calls come from the whole dose curve; as a rule, active = well fitted cell-killing curve with a large enough effect; inconclusive = small, poorly fitted or top-dose-only effect, or effect the other way; inactive = no such curve, though single readings can be large or run the other way.
Field 'call' accepts active, inactive

Before answering, review these 6 worked examples.
{"molecule": "CC1(O)CCC2C(C(=O)O)=COC(OC3OC(CO)C(O)C(O)C3OC(=O)/C=C/c3ccc(O)cc3)C21 (stereo not drawn)", "label": "inactive"}
{"molecule": "CNC(=O)Cn1cc(-c2ccc3c(c2)C(F)CC32NC(=O)N(CC(=O)N(Cc3ccc(F)cc3)C(C)C(F)(F)F)C2=O)cn1 (stereo not drawn)", "label": "active"}
{"molecule": "COc1ccc(/C=C/C(=O)O[C@H]2[C@H](O[C@H]3[C@@H]4C=CO[C@@H](O[C@@H]5O[C@H](CO)[C@@H](O)[C@H](O)[C@H]5O)[C@@H]4[C@@]4(CO)O[C@@H]34)O[C@@H](C)[C@H](O)[C@H]2OC(C)=O)cc1", "label": "inactive"}
{"molecule": "COc1c2ccoc2nc2c(OC)c(O[C@@H]3O[C@@H](C)[C@H](O)[C@@H](O[C@@H]4O[C@H](CO)[C@@H](O)[C@H](O)[C@H]4O)[C@H]3OC(C)=O)ccc12", "label": "inactive"}
{"molecule": "Cc1c(CN2CCN(S(C)(=O)=O)CC2)sc2c(N3CCOCC3)nc(-c3cnc(N)nc3)nc12", "label": "active"}
{"molecule": "OC[C@@H](O)[C@@H](O[C@@H]1O[C@H](CO)[C@H](O)[C@H](O)[C@H]1O)[C@H](O)[C@@H](O)CO", "label": "inactive"}

QUERY: Given `CCc1cc(C(N)=O)ccc1-n1nc(C(C)C)c2c(-n3cnc(-c4cnn(C)c4)c3)ccnc21` , state the outcome it received in this test.
RESULT: active

====

- testMethodNotes: Quantitative highthroughput screen to assess conditional lethalithy of NOMO1 cells grown in RPMI1640 with untreated serum (RPMI+s) (AID 1963876); note: nearly all actives have a fitted effect of over 35% in size
- assaySetup: NOMO1 AML cells in RPMI+serum, CellTiter-Glo viability, 48 h; series mostly up to 45.8 µM
Inconclusive results are not listed. Calls of active or inactive are those of the source. The call rests on the fitted dose curve; in most records, active means well fitted cell-killing curve with a large enough effect; inconclusive means small, poorly fitted or top-dose-only effect; inactive means flat fitted curve, though single readings scatter.
The reply should name one outcome from yes (active), no (inactive)

Would you please look over these solved cases?
{"compound": "CC(C)c1nn(-c2c(Cl)cccc2Cl)c2nc(Cc3ccc(OCCO)cc3)[nH]c(=O)c12", "label": "yes"}
{"compound": "COc1ccc(CC2c3cc(OC)c(OC)cc3CC[N+]2(C)CCC(=O)OCCCCCOC(=O)CC[N+]2(C)CCc3cc(OC)c(OC)cc3C2Cc2ccc(OC)c(OC)c2)cc1OC (stereo not given)", "label": "yes"}
{"compound": "NS(=O)(=O)c1cc(C(=O)O)c(NCc2ccco2)cc1Cl", "label": "no"}
{"compound": "Nc1nc(OCc2ccccc2)c2[nH]cnc2n1", "label": "no"}

Alright, here's another compound for you.
QUERY: Could you kindly confirm the outcome this assay logged for `C=CC(=O)N1CCc2ccc(-n3c(=O)ccc4cnc5ccc(-c6cnn(C)c6)cc5c43)cc21` ?
RESULT: yes

====

- testMethodNotes: Quantitative highthroughput screen to assess conditional lethalithy of NOMO1 cells grown in Human Plasma-Like Medium with dialyzed fetal bovine serum (HPLM+ds) (AID 1963878); note: nearly all actives have a fitted effect of over 35% in size
- assaySetup: NOMO1 AML cells in HPLM+ds, CellTiter-Glo viability, 48 h; series mostly up to 45.8 µM
- Protocol: Assay Provider: Jason Cantor Ph.D. Department of Biochemistry University of Wisconsin-Madison, Madison, WI, USA Chemical screening studies have identified drug sensitivities across hundreds of cancer cell lines but most putative therapeutics fail to translate. […] Sets of conditional anticancer compounds spanned phases of clinical development and included non-oncology drugs were assessed. […] 6; Detection; Luminescence, Viewlux PerkinElmer. […]
Inconclusive results are not listed. Calls of active or inactive are those of the source. Calls come from the whole dose curve; as a rule, active = well fitted cell-killing curve with a large enough effect; inconclusive = small, poorly fitted or top-dose-only effect, or effect the other way; inactive = no such curve, though single readings can be large or run the other way.
Reply using exactly one outcome from active, inactive

{"molecule": "OC[C@H]1O[C@@H](n2cnc3c2NC=NC[C@@H]3O)C[C@H]1O", "label": "inactive"}

QUERY: Which outcome did this test record for the molecule `C=C1C(=CC=C2CCC[C@]3(C)[C@@H]([C@H](C)CCCC(C)(C)O)CC[C@@H]23)C[C@@H](O)C[C@@H]1O` ?
RESULT: inactive

QUERY: Same again, this time with `COc1cc(Nc2ncc(F)c(Nc3ccc4c(n3)N(COP(=O)(O)O)C(=O)C(C)(C)O4)n2)cc(OC)c1OC`
RESULT: inactive

QUERY: Similarly, `Clc1cccc(Cl)c1NC1=NCCN1` ?
RESULT: inactive

QUERY: Now the same for `O=C(Nc1cc(C(F)(F)F)cc(C(F)(F)F)c1)c1cc(Cl)ccc1O`
RESULT: active

QUERY: Also CCc1ccc(CCOc2ccc(CC3SC(=O)NC3=O)cc2)nc1 (stereo not given) ?
RESULT: inactive

QUERY: Entry `Cc1ccc(F)c(NC(=O)Nc2ccc(-c3cccc4[nH]nc(N)c34)cc2)c1` please
RESULT: inactive

QUERY: Next record, please: COc1ccc(C2CC(c3ccccc3)=NN2c2ccc(S(N)(=O)=O)cc2)cc1 (stereo not given)
RESULT: active

QUERY: // next record `Nc1ncnc2ccccc12`
RESULT: inactive

QUERY: What would you report for `O=c1oc2c(O)c(O)cc3c(=O)oc4c(O)c(O)cc1c4c23` ?
RESULT: inactive

====

- testMethodNotes: Viability qHTS for spleen associated tyrosine kinase inhibitor (SYKi) drug resistant MV4-11 cells (AID 1963824); note: nearly all actives have a fitted effect of over 35% in size
- assaySetup: SYKi-resistant MV4-11 viability, CellTiter-Glo, 72 h; series mostly up to 45 µM
- Experimental: Department of Medicine, Hematology/Oncology University Hospital Frankfurt, Germany. Trials have shown promising clinical activity of the selective SYK inhibitor entospletinib in patients with high expressing HOXA9/MEIS1 acute leukemias. […] 7; Detection; Luminescence; ViewLux plate reader (PerkinElmer). […] 1. Quantitative high-throughput screening (qHTS) of small molecule compounds was conducted on drug resistant SYKi MV4-11 cell line. […] 7. Luminescence was measured on a ViewLux plate reader (PerkinElmer).
Inconclusive results are not listed. Activity calls are given as the source filed them. The call rests on the fitted dose curve; in most records, active means well fitted cell-killing curve with a large enough effect; inconclusive means small, poorly fitted or top-dose-only effect, or effect the other way; inactive means no such curve, though single readings can be large or run the other way.
API: response.call in T for active, F for inactive

The following molecules have reported results that may help.
{"molecule": "COc1cc(C[C@H]2C(=O)OC[C@@H]2Cc2ccc(OC)c(OC)c2)ccc1O", "label": "T"}
{"molecule": "COc1cc(-c2cccc(O)c2)cc2c1OCO2", "label": "F"}
{"molecule": "CCc1cncnc1N1CCN(Cc2nc3ccc(C(F)(F)F)cc3[nH]2)CC1", "label": "T"}
{"molecule": "CN1CCN(C(=O)c2ccc(Nc3nccc(-c4cccs4)n3)cc2Cl)CC1", "label": "T"}
{"molecule": "CCCCCC(C)N (stereo not given)", "label": "F"}
{"molecule": "CCNC(=O)[C@@H]1CCCN1C(=O)[C@H](CCCN=C(N)N)NC(=O)[C@H](CC(C)C)NC(=O)[C@@H](C)NC(=O)[C@H](Cc1ccc(O)cc1)NC(=O)[C@H](CO)NC(=O)[C@H](Cc1c[nH]c2ccccc12)NC(=O)[C@H](Cc1cnc[nH]1)NC(=O)[C@@H]1CCC(=O)N1", "label": "F"}
{"molecule": "CCCCC(=O)O[C@]1(C(=O)CO)CC[C@H]2[C@@H]3CCC4=CC(=O)CC[C@]4(C)[C@H]3[C@@H](O)C[C@@]21C", "label": "F"}
{"molecule": "CC(C)CCCC(C)N (stereo not given)", "label": "F"}

QUERY: For this molecule, state the assay outcome: CC(C)(C)NCC(O)COc1ccccc1OCC1CCCO1 (stereo not given)
RESULT: T

QUERY: Next molecule up: `Cn1c([N+](=O)[O-])cnc1COC(N)=O`
RESULT: F
